Assay: Cytotoxicity against CRL8155 cell line
Format: cell-based
Conditions: human, CRL8155 cells (lymphoblast, spleen), Table 3; read-out: Cytotoxicity (CRL8155) EC50
pEC50: −log10 of the molar value.
recorded_metric: pEC50

Record excerpt, results attached:
INSERT INTO measurements (compound, test_value) VALUES
  ('NC(=O)c1c(-c2ccc3nc(OC4CCC4)ccc3c2)nn(C2CCCC2)c1N [Compound 1653]', '< 4.40'),
  ('COc1ccc2cc(-c3nn(C(C)(C)C)c(N)c3C(N)=O)cnc2c1 [Compound 1543]', '< 4.40'),
  ('NC(=O)c1c(-c2ccc3nc(OC4CCC4)ccc3c2)nn(C2CCCCC2)c1N [Compound 1646]', '< 4.40'),
  ('CCOc1ccc2cc(-c3nn(CC4CC4)c(N)c3C(N)=O)ccc2n1 [Compound 1635]', '< 4.40'),
  ('CCOc1ccc2cc(-c3nn(CC(C)(C)CO)c(N)c3C(N)=O)cnc2c1 [Compound 1596]', '< 4.40'),
  ('CC(C)(C)n1nc(-c2cnc3cc(F)ccc3c2)c(C(N)=O)c1N [Compound 1545]', '< 4.40'),
  ('CCOc1ccc2cc(-c3nn(CC(C)(C)CO)c(N)c3C(N)=O)ccc2n1 [Compound 1622]', '< 4.40'),
  ('NC(=O)c1c(-c2cnc3cc(OC4CCC4)ccc3c2)nn(C2CCCCC2)c1N [Compound 1647]', '< 4.40');

For every item in the list below, what is its measured pEC50?
1. CC(C)(CO)Cn1nc(-c2cnc3cc(OC4CCC4)ccc3c2)c(C(N)=O)c1N [Compound 1644]
2. CCCOc1ccc2cc(-c3nn(C(C)(C)C)c(N)c3C(N)=O)cnc2c1 [Compound 1566]

1. < 4.40
2. < 4.40

---

Target: Prkcn (Homo sapiens (Human))
Sequence (O94806 whole entry, looked up, species assumed): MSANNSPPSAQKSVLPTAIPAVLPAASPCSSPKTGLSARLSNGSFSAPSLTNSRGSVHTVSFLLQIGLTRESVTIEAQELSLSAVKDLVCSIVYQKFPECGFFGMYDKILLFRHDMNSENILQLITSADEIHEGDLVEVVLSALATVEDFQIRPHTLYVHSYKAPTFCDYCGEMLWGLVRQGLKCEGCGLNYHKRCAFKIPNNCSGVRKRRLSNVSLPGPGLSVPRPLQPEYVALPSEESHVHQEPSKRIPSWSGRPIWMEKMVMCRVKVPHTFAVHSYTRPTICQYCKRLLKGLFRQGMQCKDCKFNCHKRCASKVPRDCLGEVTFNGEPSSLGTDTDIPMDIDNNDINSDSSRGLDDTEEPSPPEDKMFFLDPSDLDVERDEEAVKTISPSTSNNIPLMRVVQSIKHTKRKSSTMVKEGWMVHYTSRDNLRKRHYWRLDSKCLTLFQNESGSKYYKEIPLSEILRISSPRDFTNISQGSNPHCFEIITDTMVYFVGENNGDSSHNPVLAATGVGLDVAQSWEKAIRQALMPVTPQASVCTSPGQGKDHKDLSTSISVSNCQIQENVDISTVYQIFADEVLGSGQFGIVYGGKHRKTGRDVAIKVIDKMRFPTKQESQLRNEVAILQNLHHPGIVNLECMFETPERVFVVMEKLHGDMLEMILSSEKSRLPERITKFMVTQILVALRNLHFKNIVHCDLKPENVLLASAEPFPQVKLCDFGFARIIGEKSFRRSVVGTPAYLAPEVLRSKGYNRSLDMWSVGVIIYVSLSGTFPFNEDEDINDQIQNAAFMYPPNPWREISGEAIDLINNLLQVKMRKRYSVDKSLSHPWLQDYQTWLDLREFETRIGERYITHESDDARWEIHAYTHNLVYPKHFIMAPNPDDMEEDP
recorded_metric: Ki (nM)
Give bare numbers, in nM.

Sample `CCOc1ccc2cc(-c3nn(C(C)(C)C)c(N)c3C(N)=O)cnc2c1` — what was its Ki?
427

---

Biological target: TgCDPK1 (Toxoplasma gondii, UniProt Q9BJF5)
Sequence (Q9BJF5 1-507): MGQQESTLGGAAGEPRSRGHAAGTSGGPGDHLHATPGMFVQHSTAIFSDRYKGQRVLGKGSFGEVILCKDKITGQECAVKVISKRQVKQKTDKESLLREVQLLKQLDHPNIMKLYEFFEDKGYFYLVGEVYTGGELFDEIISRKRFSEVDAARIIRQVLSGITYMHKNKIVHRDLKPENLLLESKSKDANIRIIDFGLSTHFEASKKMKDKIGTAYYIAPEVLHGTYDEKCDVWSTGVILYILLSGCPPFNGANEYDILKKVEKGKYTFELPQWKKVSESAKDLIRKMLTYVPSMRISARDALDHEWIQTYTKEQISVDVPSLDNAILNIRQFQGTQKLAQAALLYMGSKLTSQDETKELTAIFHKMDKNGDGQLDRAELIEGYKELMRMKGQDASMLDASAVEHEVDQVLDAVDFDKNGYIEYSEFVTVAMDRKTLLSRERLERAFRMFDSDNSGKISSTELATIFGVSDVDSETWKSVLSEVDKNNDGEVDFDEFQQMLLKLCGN
Test: biochemical
Conditions: Table 1; KinaseGlo, Syntide 2 peptide substrate; read-out: TgCDPK1 IC50
recorded_metric: pIC50
Answers are plain numbers, as −log10 of the molar value.

INSERT INTO assay_data (molecule, test_value) VALUES
  ('CCOc1ccc2cc(-c3n[nH]c(N)c3C(N)=O)cnc2c1 [Compound 1593]', 6.79);

For every item in the list below, what is its measured pIC50?
1. NC(=O)c1c(-c2cnc3cc(OC4CCC4)ccc3c2)nn(C2CCC2)c1N [Compound 1657]
2. CC(C)(C)n1nc(-c2ccc3nc(OC4CC4)ccc3c2)c(C(N)=O)c1N [Compound 1643]
3. CCOc1ccc2cc(-c3nn(C4CCOC4)c(N)c3C(N)=O)cnc2c1 (stereo not drawn) [Compound 1612]
4. COc1ccc2cc(-c3nn(CC4CCN(C)CC4)c(N)c3C(N)=O)ccc2c1 [Compound 10]

1. 7.92
2. 8.24
3. 8.00
4. 7.46

For every item in the list below, what is its measured pIC50?
1. CCOc1ccc2cc(-c3nn(C(C)C(C)(C)O)c(N)c3C(N)=O)ccc2n1 (stereo not drawn) [Compound 1636]
2. CCOc1ccc2cc(-c3nn(C(C)C(C)(C)O)c(N)c3C(N)=O)cnc2c1 (stereo not drawn) [Compound 1626]

1. 7.24
2. 7.52

For every item in the list below, what is its measured pIC50?
1. Cn1c(=O)[nH]c2cc(-c3nn(C(C)(C)C)c(N)c3C(N)=O)ccc21 [Compound 31]
2. CCOc1ccc2cc(-c3nn(CC4CC4)c(N)c3C(N)=O)cnc2c1 [Compound 1598]
3. Cn1nc(N)c2ccc(-c3nn(C(C)(C)C)cc3C(N)=O)cc21 [Compound 29]
4. CCOc1ccc2cc(-c3nn(C(C(C)C)C(C)C)c(N)c3C(N)=O)cnc2c1 [Compound 1607]

1. 6.19
2. 7.92
3. 7.77
4. 7.00

For every item in the list below, what is its measured pIC50?
1. CC(C)(C)n1nc(-c2cnc3cc(OC4CCC4)ccc3c2)c(C(N)=O)c1N [Compound 1630]
2. NC(=O)c1c(-c2ccc3nc(OC4CCC4)ccc3c2)nn(C2CCC2)c1N [Compound 1656]

8.52
8.15

For every item in the list below, what is its measured pIC50?
1. CCOc1ccc2cc(-c3nn(CC(C)(C)O)c(N)c3C(N)=O)cnc2c1 [Compound 1641]
2. CCOc1ccc2cc(-c3nn(C4CCCCC4)c(N)c3C(N)=O)ccc2n1 [Compound 1633]
3. COCCOc1ccc2cc(-c3nn(C(C)(C)C)c(N)c3C(N)=O)cnc2c1 [Compound 1570]
4. NC(=O)c1c(-c2ccc3nc(OC4CCC4)ccc3c2)nn(C2CCCC2)c1N [Compound 1653]

7.39
8.40
6.59
7.92

---

Assay: Pharmacokinetic studies in mice
Conditions: mouse, in vivo, 10 mg/kg
recorded_metric: Tmax (min)
Answers are plain numbers, in min.

Sample COc1ccc2cc(-c3nn(C(C)(C)C)c(N)c3C(N)=O)ccc2c1 [Compound 25] — what was its Tmax?
30

---

Target: hERG (Homo sapiens (Human))
Sequence (Q12809 whole entry): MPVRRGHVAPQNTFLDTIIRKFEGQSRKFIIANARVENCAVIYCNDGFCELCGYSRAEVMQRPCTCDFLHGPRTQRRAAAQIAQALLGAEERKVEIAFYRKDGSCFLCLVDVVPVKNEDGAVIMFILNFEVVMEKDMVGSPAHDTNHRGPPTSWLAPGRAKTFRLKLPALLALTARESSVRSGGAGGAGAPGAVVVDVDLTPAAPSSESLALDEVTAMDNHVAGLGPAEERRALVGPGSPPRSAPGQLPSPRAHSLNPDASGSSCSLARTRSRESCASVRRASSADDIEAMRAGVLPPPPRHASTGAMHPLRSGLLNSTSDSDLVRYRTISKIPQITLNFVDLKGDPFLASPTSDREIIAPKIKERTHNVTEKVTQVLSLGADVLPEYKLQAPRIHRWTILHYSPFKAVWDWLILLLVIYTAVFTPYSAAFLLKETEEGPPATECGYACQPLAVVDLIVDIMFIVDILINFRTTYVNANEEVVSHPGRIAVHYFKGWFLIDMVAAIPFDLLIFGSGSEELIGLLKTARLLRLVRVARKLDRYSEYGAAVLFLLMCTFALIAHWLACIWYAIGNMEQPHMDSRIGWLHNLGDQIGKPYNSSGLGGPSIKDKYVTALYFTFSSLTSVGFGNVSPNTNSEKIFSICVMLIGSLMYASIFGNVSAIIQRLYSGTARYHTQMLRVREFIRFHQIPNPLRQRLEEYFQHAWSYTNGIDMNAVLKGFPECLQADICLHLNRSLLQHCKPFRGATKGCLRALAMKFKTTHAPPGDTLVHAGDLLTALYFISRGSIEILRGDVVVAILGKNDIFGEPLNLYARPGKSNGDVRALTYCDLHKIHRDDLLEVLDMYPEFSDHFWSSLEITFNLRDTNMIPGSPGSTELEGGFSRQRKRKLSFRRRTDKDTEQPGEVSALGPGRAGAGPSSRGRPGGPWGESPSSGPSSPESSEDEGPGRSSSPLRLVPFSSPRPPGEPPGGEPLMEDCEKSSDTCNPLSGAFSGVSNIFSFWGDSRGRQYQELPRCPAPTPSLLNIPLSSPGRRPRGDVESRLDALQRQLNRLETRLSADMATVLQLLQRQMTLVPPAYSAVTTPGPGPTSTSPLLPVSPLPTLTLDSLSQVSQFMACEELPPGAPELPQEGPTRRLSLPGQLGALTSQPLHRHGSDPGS
pIC50: −log10 of the molar value.
recorded_metric: pIC50

Fill in the recorded pIC50 for this compound, with hERG (Homo sapiens (Human)) as test system: `COc1ccc2cc(-c3nn(C(C)(C)C)c(N)c3C(N)=O)ccc2c1`
< 5.00

---

Target: UniProtKB P35968
Sequence (P35968 20-1356, species assumed): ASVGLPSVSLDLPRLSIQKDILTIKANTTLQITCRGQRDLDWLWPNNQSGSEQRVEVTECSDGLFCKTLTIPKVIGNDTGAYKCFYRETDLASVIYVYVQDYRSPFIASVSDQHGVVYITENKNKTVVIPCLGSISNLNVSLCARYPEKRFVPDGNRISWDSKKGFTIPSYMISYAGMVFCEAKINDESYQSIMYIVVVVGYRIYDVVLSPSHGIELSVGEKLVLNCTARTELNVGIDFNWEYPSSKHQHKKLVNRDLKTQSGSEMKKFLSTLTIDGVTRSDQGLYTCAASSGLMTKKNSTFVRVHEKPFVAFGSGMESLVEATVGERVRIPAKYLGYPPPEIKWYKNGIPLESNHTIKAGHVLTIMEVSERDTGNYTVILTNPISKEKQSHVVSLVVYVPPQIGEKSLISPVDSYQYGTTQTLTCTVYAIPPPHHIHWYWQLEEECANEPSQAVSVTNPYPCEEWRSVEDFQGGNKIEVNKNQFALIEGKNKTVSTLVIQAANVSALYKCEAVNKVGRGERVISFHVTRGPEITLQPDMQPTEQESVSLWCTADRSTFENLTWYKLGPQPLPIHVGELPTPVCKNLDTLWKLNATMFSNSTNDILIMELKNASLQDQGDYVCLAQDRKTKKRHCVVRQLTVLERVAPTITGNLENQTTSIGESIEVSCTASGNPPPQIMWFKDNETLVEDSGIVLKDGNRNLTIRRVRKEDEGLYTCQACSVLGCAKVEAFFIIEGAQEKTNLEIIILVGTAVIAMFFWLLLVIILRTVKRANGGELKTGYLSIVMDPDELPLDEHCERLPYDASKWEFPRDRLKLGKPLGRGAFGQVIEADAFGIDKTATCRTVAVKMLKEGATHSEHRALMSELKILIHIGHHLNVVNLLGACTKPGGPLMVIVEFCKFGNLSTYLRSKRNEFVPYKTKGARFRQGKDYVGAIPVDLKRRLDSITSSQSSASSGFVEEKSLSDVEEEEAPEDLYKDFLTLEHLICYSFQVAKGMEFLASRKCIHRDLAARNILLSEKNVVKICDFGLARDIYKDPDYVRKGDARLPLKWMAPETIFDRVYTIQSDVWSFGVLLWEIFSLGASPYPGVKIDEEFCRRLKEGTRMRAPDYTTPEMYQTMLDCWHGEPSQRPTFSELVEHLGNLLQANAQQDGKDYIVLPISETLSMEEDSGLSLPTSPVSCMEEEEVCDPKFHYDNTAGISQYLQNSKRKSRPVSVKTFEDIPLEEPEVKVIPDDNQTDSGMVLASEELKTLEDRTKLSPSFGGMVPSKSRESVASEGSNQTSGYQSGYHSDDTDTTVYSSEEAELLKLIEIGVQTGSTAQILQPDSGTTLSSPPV
recorded_metric: pKi
One number for each entry, as −log10 of the molar value.

Sample `CCOc1ccc2cc(-c3nn(C(C)(C)C)c(N)c3C(N)=O)cnc2c1` — what was its pKi?
6.24

---

Assay: Pharmacokinetic studies in mice
Details: mouse, in vivo, 10 mg/kg
recorded_metric: AUC

Sample COc1ccc2cc(-c3nn(C(C)(C)C)c(N)c3C(N)=O)ccc2c1 [Compound 25] — what was its AUC?
5.94 µM·h

---

Biological target: TgCDPK1 (Toxoplasma gondii, UniProt Q9BJF5)
Assay: biochemical
Conditions: Table 1; KinaseGlo, Syntide 2 peptide substrate; read-out: TgCDPK1 IC50
recorded_metric: IC50 (µM)
Answers are plain numbers, in µM.

Record excerpt, results attached:
INSERT INTO assay_data (compound, study_target, recorded_metric, display_unit, test_value) VALUES
  ('CCOc1ccc2cc(-c3nn(C(C)C)c(N)c3C(N)=O)ccc2n1 [Compound 1661]', 'TgCDPK1 (Toxoplasma gondii, UniProt Q9BJF5)', 'IC50', 'µM', 0.005),
  ('CCOc1ccc2cc(-c3nn(CC4CC4)c(N)c3C(N)=O)ccc2n1 [Compound 1635]', 'TgCDPK1 (Toxoplasma gondii, UniProt Q9BJF5)', 'IC50', 'µM', 0.006),
  ('CC(C)(C)COc1ccc2cc(-c3nn(C(C)(C)C)c(N)c3C(N)=O)cnc2c1 [Compound 1587]', 'TgCDPK1 (Toxoplasma gondii, UniProt Q9BJF5)', 'IC50', 'µM', 0.175);

Sample CCOc1ccc2cc(-c3nn(C(CO)CO)c(N)c3C(N)=O)cnc2c1 [Compound 1629] — what was its IC50?
0.12

---

Test: Pharmacokinetic studies in mice
Conditions: mouse, in vivo, 10 mg/kg
recorded_metric: Cmax (µM)
Numbers only, in µM.

Sample COc1ccc2cc(-c3nn(C(C)(C)C)c(N)c3C(N)=O)ccc2c1 [Compound 25] — what was its Cmax?
3.1

---

Can you tell me EC50 for the items I'm about to list?
Assay: Cytotoxicity against CRL8155 cell line
Type: cell-based
Settings: human, CRL8155 cells (lymphoblast, spleen), Table 4; read-out: Cell toxicity (EC50, μM) CRL 8155

Record excerpt, results attached:
INSERT INTO measurements (compound, recorded_metric, test_value) VALUES
  ('CCCOc1ccc2cc(-c3nn(C(C)(C)C)c(N)c3C(N)=O)cnc2c1 [Compound 1566]', 'EC50', '16 µM'),
  ('CCOc1ccc2cc(-c3nn(C4CCCCC4)c(N)c3C(N)=O)cnc2c1 [Compound 1571]', 'EC50', '> 40 µM'),
  ('CCOc1ccc2cc(-c3nn(C(C)(C)C)c(N)c3C(N)=O)cnc2c1 [Compound 39]', 'EC50', '> 40 µM'),
  ('CCOc1ccc2cc(-c3nn(C(C)C)c(N)c3C(N)=O)cnc2c1 [Compound 1572]', 'EC50', '> 40 µM'),
  ('COc1ccc2cc(-c3nn(C(C)(C)C)c(N)c3C(N)=O)ccc2c1 [Compound 25]', 'EC50', '> 40 µM'),
  ('COc1ccc2cc(-c3nn(C(C)(C)C)c(N)c3C(N)=O)cnc2c1 [Compound 1543]', 'EC50', '> 40 µM');

Moving on to another compound below.
Sample CCCOc1ccc2cc(-c3nn(C(C)(C)C)c(N)c3C(N)=O)ccc2c1 [Compound 26] — what was its EC50?
38 µM
